- subject_of_test: T1, DLG3_3, Q92796
- T1 sequence (Q92796 374-475, limits assumed, looked up): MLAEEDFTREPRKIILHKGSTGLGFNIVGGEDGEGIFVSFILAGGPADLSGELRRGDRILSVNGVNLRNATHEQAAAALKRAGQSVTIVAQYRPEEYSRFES
- measurement_notes: holdup assay
- Parameters: key: below the threshold = too weak to quantify, mostly under pKd 3.1 to 4
- assay_setup: plain residues with an end cap or a label only (N-terminal biotin on a linker: ttds)

[
  {
    "binder": "GQDSREETQL [KCNT2, Q6UVM3]",
    "pKd": "below the threshold"
  },
  {
    "binder": "QSARYRDTEL [TJP2, Q9UDY2]",
    "pKd": "below the threshold"
  },
  {
    "binder": "IDNDTESTAL [ARHGAP17, Q68EM7]",
    "pKd": "below the threshold"
  }
]
